test: viability loss with induced miR-34 in A549 – imaging, A549 dox-inducible miR-34, nuclei and caspase counts, primary screen (AID 1347080); conditions: A549 miR-34 inducible, Hoechst nuclei count, 48 h; measured here: total cells with miR-34 induction; stronger effect = lower value; also: test concentration not given here
I'd appreciate it if you could supply cell count values for the items below.
Form field (numeric): enter value without unit.

Task item: # get_value(readout='cell count', item= `CCCCC[C@H](O)/C=C/[C@H]1CC[C@H](O)[C@@H]1C/C=C\CCCC(=O)O` )
Reply: 6120

Task item: Moving on to `O=Cc1cccc2[nH]ccc12`
Reply: 6070

Task item: Moving on to `CCCCCCCC/C=C\CCCCCCCC(=O)N[C@H](CO)Cc1ccc(O)cc1`
Reply: 6010

Task item: Moving on to `CCCCCCCCCCCCCCCCCCCCCC(=O)NCCO`
Reply: 6180

Task item: Moving on to CCCCCCCCCC(=O)NC(CN1CCOCC1)C(O)c1ccccc1 (stereo not given)
Reply: 5830

Reference source: PubChem BioAssay
